- Target or system: NPR-1 mutants (Caenorhabditis elegans, UniProt Q18534, E301A)
- Protocol description: cAMP reporter gene assay
- Type: cell-based, C. elegans
Where no end group is shown, it is not given here.
Experimental readout: EC50 (nM)
Unit nM implied. Number only.

Record GLGPRPLRF-NH2 [FLP-21] . Reported EC50: 20

###

- Target or system: NPR-1 mutants (Caenorhabditis elegans, UniProt Q18534, E180D)
- Sequence (Q18534 whole entry E180D): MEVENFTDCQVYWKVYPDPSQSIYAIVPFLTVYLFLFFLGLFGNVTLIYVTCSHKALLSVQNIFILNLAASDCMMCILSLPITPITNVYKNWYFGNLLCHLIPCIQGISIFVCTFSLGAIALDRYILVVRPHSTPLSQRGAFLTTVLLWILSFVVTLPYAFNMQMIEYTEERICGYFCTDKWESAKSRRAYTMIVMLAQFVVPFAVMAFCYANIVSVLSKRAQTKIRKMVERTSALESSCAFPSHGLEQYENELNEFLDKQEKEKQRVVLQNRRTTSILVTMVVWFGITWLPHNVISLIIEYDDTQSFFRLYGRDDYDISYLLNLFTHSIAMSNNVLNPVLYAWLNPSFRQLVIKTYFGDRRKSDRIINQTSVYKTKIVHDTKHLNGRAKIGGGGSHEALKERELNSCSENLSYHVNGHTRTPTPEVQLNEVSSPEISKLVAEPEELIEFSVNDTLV
- Protocol description: cAMP reporter gene assay
- Type: cell-based, C. elegans
Where no end group is shown, it is not given here.
Experimental readout: EC50
Number plus unit, in that order.

Looking up GLGPRPLRF-NH2 [FLP-21] , I found its EC50 recorded as 495 nM
